# PROTOCOL: suppressors of polyglutamine aggregation in yeast, 75Q-TubH (AID 1616)
# STATED_CONDITIONS: S. cerevisiae 75Q-TubH polyglutamine aggregation suppression; stronger effect = higher value
REPORTED_METRIC: aggregation suppression score
Please respond with just the number, no unit label.

Below, each entry is followed by its recorded aggregation suppression score result.
>>> df
                                   molecule    val
0  CC1=C2C(=CO[C@H](C)[C@H]2C)C(=O)C(C(=O)O)=C1O  0.187
1  CC1(C)O[C@@H]2CC3C4C[C@H](F)C5=CC(=O)CC[C@]5(C)C4[C@@H](O)C[C@]3(C)[C@]2(C(=O)CO)O1 (some centres undefined)  0.898
2  C#C[C@]1(O)CCC2C3CCc4cc(O)ccc4C3CC[C@@]21C (some centres undefined)  0.484
3               C=C(C)[C@H]1CC=C(C(=O)O)CC1  0.107
4  CCCC(=O)Nc1ncnc2c1ncn2C1O[C@@H]2COP(=O)(O)O[C@H]2[C@H]1OC(=O)CCC (some centres undefined)   1.79

Inquiry: Name the recorded aggregation suppression score for CCCC(=O)O[C@]1(C(=O)CO)CCC2[C@@H]3CCC4=CC(=O)CC[C@]4(C)C3[C@@H](O)C[C@@]21C (some centres undefined) .
Reply text: 1.38

Inquiry: What measured aggregation suppression score goes with Nc1ccn(C2O[C@H](CO)[C@@H](O)[C@@H]2O)c(=O)n1 (some centres undefined) ?
Reply text: 1.27

Inquiry: Return reported aggregation suppression score; argument: "C=C[C@H]1CN2CC[C@H]1C[C@@H]2[C@H](O)c1ccnc2ccc(OC)cc12"
Reply text: 1.58

Inquiry: Fill blank: measured aggregation suppression score of the molecule C#C[C@]1(O)CCC2C3CCC4=C(CCC(=O)C4)C3CC[C@@]21C (some centres undefined) is ____.
Reply text: 0.537

All figures here come from PubChem BioAssay.
